Hey, just so you know, these numbers are from patent US20230212138A1.

- ASSAYED TARGET: full-length human PHD2 (Homo sapiens, UniProt Q9GZT9)
- Construct: The PHD2 construct contained amino acids 1 to 426 of PHD2; His tag (N, cleaved yes); TEV protease cleavage site (N, cleaved yes)
- Sequence (Q9GZT9 whole entry, the tested form may be a part): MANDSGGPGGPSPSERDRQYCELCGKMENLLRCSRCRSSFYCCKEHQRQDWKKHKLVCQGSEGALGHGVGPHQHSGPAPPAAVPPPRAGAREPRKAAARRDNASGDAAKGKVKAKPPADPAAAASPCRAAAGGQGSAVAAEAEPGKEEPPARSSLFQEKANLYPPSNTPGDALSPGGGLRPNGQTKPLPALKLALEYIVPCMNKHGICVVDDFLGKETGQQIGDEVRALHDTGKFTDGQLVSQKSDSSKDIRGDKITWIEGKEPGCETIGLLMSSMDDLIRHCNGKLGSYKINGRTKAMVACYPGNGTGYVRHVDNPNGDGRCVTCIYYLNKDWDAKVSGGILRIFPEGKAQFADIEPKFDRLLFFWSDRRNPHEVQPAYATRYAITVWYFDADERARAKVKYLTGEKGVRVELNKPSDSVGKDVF
- MEASUREMENT NOTES: TR-FRET assay, PHD2 enzymatic IC50
- MEASUREMENT SETUP: 5 nM PHD2, 1 μM 2-OG
pIC50: −log10 of the molar value.
ENDPOINT: pIC50

// worked examples, pIC50 included
{"columns": ["COMPOUND", "pIC50"],
 "data": [
  ["CS(=N)(=O)c1ccc(-n2ncc(-c3ccc(C#N)cc3)c2O)nc1 (stereo not drawn)", "> 7.00"],
  ["N#Cc1ccc(-c2cnn(-c3ccc(-n4cccn4)cn3)c2O)cc1", "> 7.00"],
  ["CS(=O)(=O)c1ccc(-n2ncc(-c3ccc(C#N)cc3)c2O)nc1", "> 7.00"],
  ["CS(=O)(=O)c1ccc(-n2ncc(-c3ccc(Cl)cc3)c2O)nc1", "> 7.00"],
  ["CS(=O)(=O)c1ccc(-n2ncc(-c3ccc(Br)cc3)c2O)nc1", "> 7.00"],
  ["CC(C)C(=O)c1ccc(-n2ncc(-c3ccc(C#N)cc3)c2O)nc1", "> 7.00"],
  ["N#Cc1ccc(-c2cnn(-c3ccc(-c4ccccn4)cn3)c2O)cc1", "6.00 to 7.00"],
  ["CS(=O)(=O)NC(=O)c1ccc(-n2ncc(-c3ccc(C#N)cc3)c2O)nc1", "> 7.00"]
]}

Quick one: give me pIC50 for each item below, same order please.
1. CS(=O)(=O)c1ccc(-n2ncc(-c3ccc(CC#N)cc3)c2O)nc1
2. N#Cc1ccc(-c2cnn(-c3ccc(NC(=O)C4CC4)cn3)c2O)cc1
3. Cc1cc(C#N)ccc1-c1cnn(-c2ncc(S(C)(=O)=O)cc2Cl)c1O
4. N#Cc1ccc(-c2cnn(-c3ccc(C4CC4)cn3)c2O)cc1
5. N#Cc1ccc(-c2cnn(-c3ccc(NC(=O)N4CCNCC4)cn3)c2O)cc1
6. N#Cc1ccc(-c2cnn(-c3ccc(-c4ncco4)cn3)c2O)cc1
7. CCS(=O)(=O)Nc1ccc(-n2ncc(-c3ccc(C#N)cc3)c2O)nc1

### Response
> 7.00
> 7.00
≤ 5.00
≤ 5.00
≤ 5.00
> 7.00
> 7.00

====

- ASSAYED TARGET: full-length human PHD2 (Homo sapiens, UniProt Q9GZT9)
- Construct: The PHD2 construct contained amino acids 1 to 426 of PHD2; His tag (N, cleaved yes); TEV protease cleavage site (N, cleaved yes)
- MEASUREMENT NOTES: TR-FRET assay, PHD2 enzymatic IC50
- MEASUREMENT SETUP: 5 nM PHD2, 1 μM 2-OG
Kindly supply the reported IC50 values for the records listed here.

Value sought for every listed molecule: IC50.
1. N#Cc1ccc(-c2cnn(-c3ccc(-c4nccs4)cn3)c2O)cc1
2. CCC(=O)Nc1ccc(-n2ncc(-c3ccc(C#N)cc3)c2O)nc1
3. Cc1cc(C#N)ccc1-c1cnn(-c2ccc(S(C)(=O)=O)cn2)c1O
4. CS(=O)(=O)c1ccc(-n2ncc(-c3ccc(Cl)cn3)c2O)nc1

### Response
1: < 100 nM; 2: < 100 nM; 3: < 100 nM; 4: 100 to 1000 nM

### Prompt State its IC50 on full-length human PHD2 (Homo sapiens, UniProt Q9GZT9): CS(=O)(=O)c1ccc(-n2ncc(-c3cccc(C#N)c3)c2O)nc1
### Response < 100 nM
